Target: human CLEC12A expressed on cells (human) (UniProt Q5QGZ9)
Sequence (Q5QGZ9 whole entry): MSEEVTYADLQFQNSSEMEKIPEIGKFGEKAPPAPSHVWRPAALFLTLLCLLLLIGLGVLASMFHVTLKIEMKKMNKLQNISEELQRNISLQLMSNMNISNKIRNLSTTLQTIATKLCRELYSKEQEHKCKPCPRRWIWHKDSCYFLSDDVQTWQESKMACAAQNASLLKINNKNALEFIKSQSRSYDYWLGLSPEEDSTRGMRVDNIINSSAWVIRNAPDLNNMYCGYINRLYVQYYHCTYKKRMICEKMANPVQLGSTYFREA
Experiment: flow cytometry, hCLEC12A+Ba/F3 cells

{"binder": "AB0186 (bispecific antibody, part only; not given: Fc, unrelated binder arm, linkers, not shown: another chain or arm of the molecule; a dimerising Fc or GST; small tags and cut ends) scFv: DIQMTQSPSSLSASVGDRVTITCKASQDIYNYLSWFQQKPGKAPKPLIYRANILVSGVPSRFSGSGSGQDYTFTISSLQPEDIATYYCLQFDAFPFTFGCGTKLEIKGGGGSGGGGSGGGGSGGGGSEVQLVESGGGVVQPGGSLRLSCAASGFTFNAFGMHWVRQAPGKCLEWVAFISSGSTSIYYANTVKGRFTISRDNSKNTLYLQMNSLRAEDTAVYYCARDGYPTGGAMDYWGQGTSVTVSS", "unit symbol": "MFI", "Max binding MFI": 8160}
{"binder": "AB0189 (bispecific antibody, part only; not given: Fc, unrelated binder arm, linkers, not shown: another chain or arm of the molecule; a dimerising Fc or GST; small tags and cut ends) scFv: DIKMTQSPSSLSASVGDRVTITCKASQDIYNYLSWFQQKPGKAPKPLIYRANILVSGVPSRFSGSGSGQDYTLTISSLQPEDIATYYCLQFDAFPFTFGCGTKLEIKGGGGSGGGGSGGGGSGGGGSEVQLVESGGGVVQPGGSLRLSCAASGFTFNAFGMHWVRQAPGKCLEWVAFISSGSTSIYYANTVKGRFTISRDNSKNTLYLQMNSLRAEDTAVYYCARDGYPTGGAMDYWGQGTSVTVSS", "unit symbol": "MFI", "Max binding MFI": 8760}
{"binder": "AB0185 (bispecific antibody, part only; not given: Fc, unrelated binder arm, linkers, not shown: another chain or arm of the molecule; a dimerising Fc or GST; small tags and cut ends) scFv: DIQMTQSPSSLSASVGDRVTITCKASQDIYNYLSWFQQKPGKAPKPLIYRANILVSGVPSRFSGSGSGQDYTFTISSLQPEDIATYYCLQFDAFPFTFGCGTKLEIKGGGGSGGGGSGGGGSGGGGSEVQLVESGGGVVQPGGSLRLSCAASGFTFNSFGMHWVRQAPGKCLEWVAFISSGSTSIYYANTVKGRFTISRDNSKNTLYLQMNSLRAEDTAVYYCARDGYPTGGAMDYWGQGTSVTVSS", "unit symbol": "MFI", "Max binding MFI": 8020}
